Origin of measurements: PubChem BioAssay

Molecular target: Carbonic anhydrase 2 (Homo sapiens) (UniProt P00918)
Assay: compounds binding carbonic anhydrase 2 – biochemical, small-molecule microarray, Alexa647-labelled CAII, profiling panel (AID 1122)
Conditions: CAII-A647 binding fluorescence, higher = more signal
Everything with composite z-score lower than 0.4 is Criterion not met; everything else, including exactly 0.4, is Criterion met.

Query: Entry COc1cc(C(O)C2C=CC3C(=O)N(c4ccccc4)C(=O)C3N2Nc2ccccc2)cc(OC)c1OC (stereo unspecified) : is its composite z-score no less than 0.4?
Response: Criterion met

Query: Entry "CCOC(=O)c1cn(C[C@H](Cc2ccccc2)NC(=O)N[C@H](CO)CCc2oc(C(C)=O)c(C(=O)OC)c2C(=O)OC)nn1" : is its composite z-score no less than 0.4?
Response: Criterion met

Query: Entry "O=C(NC1CC1)[C@@H]1c2ccccc2C(=O)N(CC23CC4CC(CC(C4)C2)C3)[C@H]1c1ccc(CO)cc1" : is its composite z-score no less than 0.4?
Response: Criterion not met

Query: Entry CCCCC(O)C1C=CC2C(=O)N(c3ccccc3)C(=O)C2N1Nc1ccc(C#N)cc1 (stereo unspecified) : is its composite z-score no less than 0.4?
Response: Criterion met

Query: Entry "COc1ccc(C(=O)Nc2ccc3c(c2)[C@@]2(O[C@H](CCO)[C@@H]([Si](C)(C)c4ccc(OC)cc4)[C@@H]2C)C(=O)N3Cc2ccccc2)cc1" : is its composite z-score no less than 0.4?
Response: Criterion not met

###

Experiment: basal CRE-LacZ reporter activity in PC12 – cell-based, unstimulated, primary screen (AID 1145)
Details: no forskolin, luminescence, 4.5 h, called active from +8 up or from −8 down
Calls of active or inactive are those of the source.
Allowed answers: y for active, n for inactive

Query: Just curious, what result did O=C(NCC(O)CO)[C@@]1(CCS(=O)(=O)c2ccccc2)N=C(c2ccc(OCCCO)cc2)O[C@H]1c1ccccc1 (stereo partly specified) get here?
Response: n

Query: Just curious, what result did "COc1ccc([Si](C)(C)[C@H]2[C@H](CCO)O[C@@]3(C(=O)N(Cc4cccc(N5C(=O)c6ccccc6Oc6ccccc65)c4)c4ccccc43)[C@@H]2C)cc1" get here?
Response: n

Query: Just curious, what result did "COc1ccc([Si](C)(C)[C@H]2[C@H](CCO)O[C@@]3(C(=O)N(Cc4cccc(N(C=O)c5ccccc5)c4)c4ccccc43)[C@@H]2C)cc1" get here?
Response: n

Query: Just curious, what result did "O=C(O)[C@H](Cc1ccccc1)n1cc(C2(O)CCCCC2)nn1" get here?
Response: n

Query: Just curious, what result did CCC(CC)C(O)C1C=CC2C(=O)N(c3ccccc3)C(=O)C2N1Nc1ccccc1F (stereo unspecified) get here?
Response: n

Query: Just curious, what result did "CC(C)NC(=O)[C@@H]1c2ccccc2C(=O)N(Cc2ccccc2C(F)(F)F)[C@H]1c1ccc(CO)cc1" get here?
Response: n

Query: Just curious, what result did "C=C(COC)/C(=C/C[C@H](OC(C)=O)c1ccccc1OCCO)c1cc(C(=O)OC)ccc1OC" get here?
Response: y

Query: Just curious, what result did "COCCOC(=O)N1C(=O)[C@@]2(c3cc(C#CCCO)ccc31)[C@H](c1ccc(OCCO)cc1)N1[C@H](c3ccccc3)[C@H](c3ccccc3)OC(=O)[C@H]1[C@@H]2C(=O)N1CCCCCCC1" get here?
Response: n

Query: Just curious, what result did "COC(=O)[C@@]1(Cc2ccc(OC)cc2)[C@H]2c3cc(C(=O)N(C)C)[nH]c3C[C@H]2CN1C(=O)c1ccccc1" get here?
Response: n

Query: Just curious, what result did "COC(=O)[C@@]1(Cc2ccccc2)[C@H]2c3cc(C(=O)N(C)C)n(CCO)c3C[C@H]2CN1C(=O)c1ccccc1" get here?
Response: n

Query: Just curious, what result did "CCOC(=O)C[C@H]1[C@H](OC(=O)c2ccccc2-c2ccccc2)[C@@H](NC(=O)c2ccc3ccccc3c2)c2cc(OCCCO)ccc2N1C(=O)Cc1ccc(OC)cc1" get here?
Response: n

Query: Just curious, what result did "COC(=O)C(CC#Cc1ccc2c(c1)[C@]1(C(=O)N2)[C@H](c2ccc(OCCO)cc2)N2[C@H](c3ccccc3)[C@H](c3ccccc3)OC(=O)[C@H]2[C@@H]1C(=O)N1CCCCCCC1)C(=O)OC" get here?
Response: n

Query: Just curious, what result did CN1C(=O)C2C(C3CC3)C=C3CN(Cc4cccc(Cl)c4)[C@@H]([C@@H](O)Cc4ccccc4)C3C2C1=O (stereo partly specified) get here?
Response: n

Query: Just curious, what result did "COc1ccc([Si](C)(C)[C@@H]2[C@@H](CC(=O)N3CCC[C@H]3CO)O[C@]3(C(=O)N(Cc4ccc(N5CCOC5=O)cc4)c4ccccc43)[C@H]2C)cc1" get here?
Response: n

Query: Just curious, what result did "C[C@@H]1ON(c2ccccc2)[C@H](c2ccccc2)[C@H]1C(=O)O" get here?
Response: n

Query: Just curious, what result did "COCCCNC(=O)[C@@]1(Sc2ccc(C)cc2)CC(=O)N(Cc2ccccc2C(F)(F)F)[C@@H]1c1ccc(CO)cc1I" get here?
Response: n

Query: Just curious, what result did "O=C1C[C@@](C(=O)NC2CC2)(c2ccc([N+](=O)[O-])cc2)[C@@H](c2ccc(CO)cc2)N1C1CCCCC1" get here?
Response: n

Query: Just curious, what result did "C#CCN1[C@@H](Cc2ccccc2)C(=O)O[C@H](Cc2ccccc2)[C@@H]1/C=C/C1CC1" get here?
Response: n

Query: Just curious, what result did O=C1C2C=CC(C(O)c3ccc([N+](=O)[O-])cc3)N(Nc3ccccc3F)C2C(=O)N1c1ccccc1 (stereo unspecified) get here?
Response: n

Query: Just curious, what result did "O=C1N(CCS(=O)(=O)c2ccccc2)c2ccccc2C[C@]12N=C(c1ccc(OCCCO)cc1)O[C@@H]2c1ccccc1" get here?
Response: n

Query: Just curious, what result did "COCCOC(=O)N1C(=O)[C@@]2(c3ccccc31)[C@H](c1ccc(O)cc1)N1[C@H](c3ccccc3)[C@H](c3ccccc3)OC(=O)[C@H]1[C@@H]2C(=O)N1CCCCCCC1" get here?
Response: n

###

Give composite z-score for every item shown.
Tested on: Chordin-like protein 2 (CHRDL2)
Assay: compounds binding chordin-like 2 – biochemical, small-molecule microarray, 635 nm fluorescence, primary screen (AID 1126);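 further: printed compound slides probed with Chrdl2 protein at 4 µg/mL for 1 h at 4 C; score merges 667 nm emission intensity with signal to noise over three replicate slides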
Details: fluorescence 635 nm, higher = more signal
Would you mind answering with just the numeric figure?

Query: Endpoint output: composite z-score of "CCCNC(=O)[C@@]1(Sc2ccc(C)cc2)CC(=O)N(Cc2ccccc2Cl)[C@@H]1c1ccc(CO)cc1I" . Value?
Response: -1.56

Query: Endpoint output: composite z-score of "C=C(CCCC)/C(=C/C[C@H](OC(=O)c1ccncc1)c1ccccc1OCCO)c1cc(C(=O)OC)ccc1OC" . Value?
Response: 0.647

Query: Endpoint output: composite z-score of C=CCC(OC(C)=O)[C@@H]1[C@@H](N(Cc2ccc(-c3cccc(C(F)(F)F)c3)o2)C(=O)c2ccc(-c3ccccc3)cc2)c2cc(OCCCO)ccc2N1C(=O)c1ccc2ccccc2c1 (stereo partly drawn) . Value?
Response: 0.0823

Query: Endpoint output: composite z-score of CCCc1cc2c(n1CCc1ccc(Cl)cc1)C(C)C1CN(C(=O)c3ccccc3)C(C)(C(=O)OC)C21 (stereo not drawn) . Value?
Response: -1.75

Query: Endpoint output: composite z-score of C=CC1c2cc(O)c(OC)cc2CCN1C (stereo not drawn) . Value?
Response: -0.644

Query: Endpoint output: composite z-score of "O=C1C[C@]2(c3ccc([N+](=O)[O-])cc3)C(=O)N(C3CC3)c3cc(CO)ccc3[C@H]2N1C1CCCCC1" . Value?
Response: -0.308

Query: Endpoint output: composite z-score of C=C(C)[C@@H]1CC=C(C(O)C2C=CC3C(=O)N(C)C(=O)C3N2Nc2ccc([N+](=O)[O-])cc2[N+](=O)[O-])CC1 (stereo partly drawn) . Value?
Response: 0.722

Query: Endpoint output: composite z-score of "CCCCC(=C=CC[C@H](O)c1ccc(CO)o1)CCO" . Value?
Response: 0.386

###

Experiment: plasmodial surface anion channel blockers, osmotic lysis – cell-based, P. falciparum Indochina, OD700, 18 h, primary screen (AID 1157)
Settings: P. falciparum Indochina infected erythrocytes, osmotic lysis OD700, 18 h; higher = more signal, called active from +8 up or from −8 down
Give z-score for every item shown.
Would you mind answering with just the numeric figure?

Query: Endpoint output: z-score of N#Cc1ccc(NN2C(C(O)C3CC=CCC3)C=CC3C(=O)N(c4ccccc4)C(=O)C32)cc1 (configuration not stated) . Value?
Response: 1.14

Query: Endpoint output: z-score of "COc1ccc([Si](C)(C)[C@H]2[C@H](CCO)O[C@@]3(C(=O)N(Cc4cccc(N(C=O)c5ccccc5)c4)c4ccccc43)[C@@H]2C)cc1" . Value?
Response: 1.82

Query: Endpoint output: z-score of "CCOC(=O)C[C@H]1[C@H](OC(=O)Cc2ccc3c(c2)OCO3)[C@@H](NC(=O)c2ccc3ccccc3n2)c2cc(OCCCO)ccc2N1C(=O)Cc1ccc(OC)cc1" . Value?
Response: 0.0217

Query: Endpoint output: z-score of COc1ccc(C(O)C2C=CC3C(=O)N(c4ccccc4)C(=O)C3N2Nc2ccc([N+](=O)[O-])cc2)c2ccccc12 (configuration not stated) . Value?
Response: 1.12

Query: Endpoint output: z-score of "[N-]=[N+]=Nc1ccccc1C[C@@]1(C(=O)NCc2ccccc2)N=C(c2ccc(OCCCO)cc2)O[C@@H]1c1ccccc1N=[N+]=[N-]" . Value?
Response: 0.984

Query: Endpoint output: z-score of O=C(NCC(O)CO)[C@@]1(CCS(=O)(=O)c2ccccc2)N=C(c2ccc(OCCCO)cc2)O[C@H]1c1ccccc1 (some centres not stated) . Value?
Response: 1.39

Query: Endpoint output: z-score of "C=C(CCCC)C(=O)CC[C@@H](OC(=O)c1ccccc1-c1ccccc1C(=O)O)c1ccccc1OCCO" . Value?
Response: -1.14

Query: Endpoint output: z-score of C=CC[C@]1(C(=O)NCC(O)CO)COC(c2ccc(OCCCO)cc2)=N1 (some centres not stated) . Value?
Response: 0.545

Query: Endpoint output: z-score of "COCC(=C=CC[C@H](O)c1ccccc1OCCO)C[C@H](O)COCc1ccccc1" . Value?
Response: 0.896

Query: Endpoint output: z-score of "COc1ccc(C(=O)Nc2cccc(CN3C(=O)[C@]4(O[C@H](CC(=O)N5Cc6ccccc6C[C@H]5CO)[C@@H]([Si](C)(C)c5ccc(OC)cc5)[C@@H]4C)c4ccccc43)c2)cc1" . Value?
Response: 1.04

Query: Endpoint output: z-score of CC(C)=CCCC=C(C)C(O)C1C=CC2C(=O)N(c3ccccc3)C(=O)C2N1Nc1ccc(C#N)cc1 (configuration not stated) . Value?
Response: -1.08

Query: Endpoint output: z-score of O=C1C2C=CC(C(O)c3cccs3)N(Nc3ccc([N+](=O)[O-])cc3)C2C(=O)N1c1ccccc1 (configuration not stated) . Value?
Response: 0.753
